# Swimming values compiled below
Test system: Male Sprague-Dawley rats
Experiment: Rat Forced Swim Test (FST)
Format: in vivo
Settings: 10 mg/kg p.o., single administration, 1 hr. before test
Marks after values point to notes of the source that are not given here.
readout-kind: Swimming

>>> print(df.to_string())
                                   compound  readout_value
0  O=C1C(=Nc2ccc(Br)cc2)c2ccccc2N1c1ccccc1 [Example 98]   17.6 ± 1.0^c
1  CN(C)c1cc(Nc2ccc(Cl)c(Cl)c2)nc(N2CCN(Cc3ccccc3)CC2)n1 [Example 151]   18.9 ± 1.5^e
2  O=C1C(=Nc2ccc(C(F)(F)F)cc2)c2ccccc2N1c1ccccc1 [Example 95]    6.9 ± 0.9^b
3  Cc1ccc(Nc2cc(N3CCCCC3)nc(N(C)CCc3ccccc3)n2)cc1 [Example 22]   15.3 ± 0.8^g

====

Molecular target: human GAL3 receptor (Homo sapiens)
Construct: expressed in transfected cells
Sequence (O60755 whole entry): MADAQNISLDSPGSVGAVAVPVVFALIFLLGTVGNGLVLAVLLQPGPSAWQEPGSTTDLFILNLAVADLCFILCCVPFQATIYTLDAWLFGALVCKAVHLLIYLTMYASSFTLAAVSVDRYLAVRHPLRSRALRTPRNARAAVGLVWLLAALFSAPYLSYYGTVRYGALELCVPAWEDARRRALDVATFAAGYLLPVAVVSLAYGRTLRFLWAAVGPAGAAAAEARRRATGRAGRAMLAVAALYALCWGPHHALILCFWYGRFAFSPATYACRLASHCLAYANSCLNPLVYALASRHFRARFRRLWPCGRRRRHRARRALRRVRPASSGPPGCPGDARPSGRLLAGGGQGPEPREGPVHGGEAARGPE
Test: Radioligand binding at cloned human GAL3 receptor
Conditions: pyrimidines, cloned human receptor; read-out: Ki GalR3
pKi: −log10 of the molar value.
Recorded measurements of pKi, one per entry
readout-kind: pKi

                                   compound  readout_value
0  COCC1CCCCN1c1cc(Nc2ccc(C)cc2)nc(N2CCN(c3ncccc3C(F)(F)F)CC2)n1 (stereo not drawn)           6.98
1  Cc1ccc(Nc2cc(N(C)C)nc(N(C)CCc3c[nH]c4ccccc34)n2)cc1           7.10
2  Cc1ccc(Nc2cc(N(C)C)nc(N3CCN(c4ccccn4)CC3)n2)c(Br)c1           6.57

====

Target: human GAL2 receptor (Homo sapiens, UniProt O43603)
Construct: expressed in transfected cells
Sequence (O43603 whole entry): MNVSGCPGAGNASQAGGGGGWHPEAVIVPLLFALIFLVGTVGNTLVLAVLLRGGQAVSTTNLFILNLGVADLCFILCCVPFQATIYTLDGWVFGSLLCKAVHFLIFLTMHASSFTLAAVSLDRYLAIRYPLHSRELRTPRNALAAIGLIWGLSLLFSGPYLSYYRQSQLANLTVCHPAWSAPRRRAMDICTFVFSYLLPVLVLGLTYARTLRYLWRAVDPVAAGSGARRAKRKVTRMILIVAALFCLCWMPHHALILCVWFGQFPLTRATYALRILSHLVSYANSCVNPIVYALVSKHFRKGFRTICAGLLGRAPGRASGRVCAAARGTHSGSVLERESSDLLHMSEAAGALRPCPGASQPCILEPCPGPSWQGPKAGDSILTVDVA
Assay: Radioligand binding at cloned human GAL2 receptor
Settings: pyrimidines, read-out: Ki GalR2
Procedure: The binding properties of the pyrimidines of the present invention were evaluated at the cloned human galanin receptors, GAL1, GAL2, and GAL3, using protocols described herein. The binding properties of the indolones of the present invention were evaluated at the cloned human galanin receptors, GAL1, GAL2, and GAL3, using protocols described herein. […] Binding data were analyzed using nonlinear regression and statistical techniques available in the GraphPAD Prism package (San Diego, CA). […]
pKi: −log10 of the molar value.
readout-kind: pKi

                                chem_smiles                             target_system  readout_kind  bound_type  readout_value
0  Cc1ccc(Nc2cc(N3CCCCC3)nc(N3CCN(c4ncccc4C)CC3)n2)cc1  human GAL2 receptor (Homo sapiens, UniProt O43603)           pKi           =           5.47
1  Cc1ccc(Nc2cc(N(C)C)nc(Nc3ccccc3)n2)cc1Cl  human GAL2 receptor (Homo sapiens, UniProt O43603)           pKi           <           5.30
2  Cc1ccc(Nc2cc(N3CCCCC3)nc(N3CCc4ccccc4C3)n2)cc1  human GAL2 receptor (Homo sapiens, UniProt O43603)           pKi           =           6.08
3  COc1cccc(Nc2cc(N3CCCCC3)nc(N(C)CCc3c[nH]c4ccccc34)n2)c1  human GAL2 receptor (Homo sapiens, UniProt O43603)           pKi           =           5.68
4  Cc1ccc(Nc2cc(N3CCCCC3)nc(N(C)CCc3c[nH]c4ccccc34)n2)cc1  human GAL2 receptor (Homo sapiens, UniProt O43603)           pKi           =           6.17
5  Cc1ccc(Nc2cc(N3CCCCC3)nc(N(C)CCc3ccccc3)n2)cc1  human GAL2 receptor (Homo sapiens, UniProt O43603)           pKi           =           6.75

====

Biological target: human 5HT1A receptor (Homo sapiens, UniProt P08908)
Construct: expressed in transfected cells; host or cells: COS-7 cells, transient (pCEXV-3 vector)
Sequence (P08908 whole entry): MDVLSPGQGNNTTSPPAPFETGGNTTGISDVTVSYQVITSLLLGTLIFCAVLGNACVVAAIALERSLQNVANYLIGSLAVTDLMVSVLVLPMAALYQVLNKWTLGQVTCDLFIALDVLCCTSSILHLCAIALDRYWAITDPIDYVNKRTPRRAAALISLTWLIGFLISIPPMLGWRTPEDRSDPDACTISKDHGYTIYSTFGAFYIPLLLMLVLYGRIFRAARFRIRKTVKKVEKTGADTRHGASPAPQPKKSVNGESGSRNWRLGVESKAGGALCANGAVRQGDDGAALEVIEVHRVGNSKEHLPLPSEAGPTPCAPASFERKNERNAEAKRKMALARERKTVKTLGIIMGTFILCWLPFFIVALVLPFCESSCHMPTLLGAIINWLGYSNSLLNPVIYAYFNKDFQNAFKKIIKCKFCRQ
Assay: Radioligand binding, 5-HT1A receptor (3H-8-OH-DPAT)
Settings: Table 7; read-out: h5HT1A Ki
readout-kind: Ki (µM)

>>> print(df.to_string())
                                   molecule  unit_tag  bound_type  readout_value
0  Cc1ccc(Nc2cc(N3CCCCC3)nc(N(C)CCc3ccccc3)n2)cc1 [Example 22]        µM           =           9.71
1  CN(C)c1cc(Nc2ccc(Cl)c(Cl)c2)nc(Nc2ccccc2)n1 [Example 60]        µM           =           33.7
2  O=C1C(=Nc2ccc(Br)cc2)c2ccccc2N1c1ccccc1 [Example 98]        µM           =           24.6
3  COc1cccc(Nc2cc(N3CCCCC3)nc(N(C)CCc3c[nH]c4ccccc34)n2)c1 [Example 17]        µM           =           3.48
4  Cc1ccc(Nc2cc(N(C)C)nc(N(C)CCc3c[nH]c4ccccc34)n2)cc1 [Example 77]        µM           =           5.47
5  O=C1C(=Nc2ccc(Cl)cc2)c2ccccc2N1c1ccccc1 [Example 97]        µM           >             50

====

Biological target: human GAL3 receptor (Homo sapiens)
Construct: expressed in transfected cells
Experiment: Radioligand binding at cloned human GAL3 receptor
Conditions: pyrimidines, cloned human receptor; read-out: Ki GalR3
Here, each record is paired with measured Ki data.
readout-kind: Ki (µM)

>>> df
                                   compound                       target_system  readout_value
0  CN(C)c1cc(Nc2ccc(OCc3ccccc3)cc2)nc(N2CCN(c3ccccn3)CC2)n1 [Example 117]  human GAL3 receptor (Homo sapiens)          0.061
1  Cc1nc2cc(Nc3cc(N(C)C)nc(N4CCN(Cc5ccccc5)CC4)n3)ccc2s1 [Example 127]  human GAL3 receptor (Homo sapiens)          0.255
2  Cc1ccc(Nc2cc(N3CCCCC3)nc(N3CCN(c4ncccc4C)CC3)n2)cc1 [Example 31]  human GAL3 receptor (Homo sapiens)          0.174

====

Target: dopamine D5 receptor (Homo sapiens)
Construct: expressed in transfected cells
Sequence (P21918 whole entry): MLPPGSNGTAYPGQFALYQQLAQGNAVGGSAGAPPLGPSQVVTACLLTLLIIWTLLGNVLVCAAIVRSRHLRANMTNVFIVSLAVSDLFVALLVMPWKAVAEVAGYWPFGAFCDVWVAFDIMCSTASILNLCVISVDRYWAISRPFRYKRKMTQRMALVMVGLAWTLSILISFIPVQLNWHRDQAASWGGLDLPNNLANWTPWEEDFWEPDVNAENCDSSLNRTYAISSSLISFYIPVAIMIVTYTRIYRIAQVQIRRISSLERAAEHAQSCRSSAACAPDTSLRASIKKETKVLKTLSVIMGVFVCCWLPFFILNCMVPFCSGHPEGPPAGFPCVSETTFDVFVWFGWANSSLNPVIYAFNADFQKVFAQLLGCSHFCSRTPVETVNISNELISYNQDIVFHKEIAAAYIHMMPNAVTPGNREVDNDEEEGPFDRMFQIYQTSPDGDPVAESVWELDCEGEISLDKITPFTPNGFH
Assay: Radioligand binding, dopamine D5 receptor
Conditions: Table 10; Ki hD5 divided by Ki hGAL3
Procedure: Other receptors: Cell membranes expressing human dopamine D1, D2, D4 and rat D3 receptors were purchased through BioSignal, Inc. (Montreal, Canada). […] Binding data were analyzed using nonlinear regression and statistical techniques available in the GraphPAD Prism package (San Diego, CA). […]
readout-kind: selectivity ratio hD5

                                   compound                        target_system  readout_value
0  O=C1C(=Nc2cccc(C(F)(F)F)c2)c2ccccc2N1c1ccccc1 [Example 92]  dopamine D5 receptor (Homo sapiens)           >100
1  CN(C)c1cc(Nc2ccc(Cl)c(Cl)c2)nc(Nc2ccccc2)n1 [Example 60]  dopamine D5 receptor (Homo sapiens)              6
2  O=C1C(=Nc2cccc(Cl)c2)c2ccccc2N1c1ccccc1 [Example 94]  dopamine D5 receptor (Homo sapiens)             15
3  COC[C@@H]1[C@@H](c2ccccc2)OCCN1c1nc(Nc2ccc(C)cc2)cc(N2CCCCC2)n1 [Example 49]  dopamine D5 receptor (Homo sapiens)              2

====

Biological target: human α1A adrenoceptor (Homo sapiens, UniProt P35348)
Construct: expressed in transfected cells
Sequence (P35348 1-466): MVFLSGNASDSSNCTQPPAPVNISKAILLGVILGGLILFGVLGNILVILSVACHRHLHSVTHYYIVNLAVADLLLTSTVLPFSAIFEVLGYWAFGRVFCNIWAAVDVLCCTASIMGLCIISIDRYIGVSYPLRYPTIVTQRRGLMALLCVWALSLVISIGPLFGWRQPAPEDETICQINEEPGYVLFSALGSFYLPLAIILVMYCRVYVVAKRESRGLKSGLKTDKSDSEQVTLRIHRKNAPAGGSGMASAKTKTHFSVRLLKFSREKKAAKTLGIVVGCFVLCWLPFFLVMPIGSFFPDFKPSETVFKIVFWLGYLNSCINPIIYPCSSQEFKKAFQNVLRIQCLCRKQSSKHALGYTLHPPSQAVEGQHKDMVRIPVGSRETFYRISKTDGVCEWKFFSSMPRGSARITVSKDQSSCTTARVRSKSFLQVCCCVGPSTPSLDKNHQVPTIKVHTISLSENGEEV
Assay: Radioligand binding, α1A adrenergic receptor
Conditions: Table 9; read-out: hα1A Ki
Overview of reported log10(Ki) across a group of compounds:
readout-kind: log10(Ki) (log10 of the value in µM)

>>> print(df.to_string())
                                   compound  readout_value
0  Cc1ccc(Nc2cc(N3CCCCC3)nc(N(C)CCc3c[nH]c4ccccc34)n2)cc1 [Example 11]          -0.03
1  Cc1ccc(Nc2cc(N3CCCCC3)nc(N3CCN(c4ncccc4C(F)(F)F)CC3)n2)cc1 [Example 34]           0.58
2  COc1cccc(Nc2cc(N3CCCCC3)nc(N(C)CCc3c[nH]c4ccccc34)n2)c1 [Example 17]           0.00
3  Cc1ccc(Nc2cc(N3CCCCC3)nc(N(C)CCc3ccccc3)n2)cc1 [Example 22]           0.11
4  CN(C)c1cc(Nc2ccc(Cl)c(Cl)c2)nc(Nc2ccccc2)n1 [Example 60]           1.13
5  Cc1ccc(Nc2cc(N(C)C)nc(N(C)CCc3c[nH]c4ccccc34)n2)cc1 [Example 77]          -0.08
6  O=C1C(=Nc2ccc(Br)cc2)c2ccccc2N1c1ccccc1 [Example 98]           1.16
